For each of the compounds below, state its IC50.
Measured target: Fatty-acid amide hydrolase 1 (Rattus norvegicus)
Sequence (P97612 whole entry): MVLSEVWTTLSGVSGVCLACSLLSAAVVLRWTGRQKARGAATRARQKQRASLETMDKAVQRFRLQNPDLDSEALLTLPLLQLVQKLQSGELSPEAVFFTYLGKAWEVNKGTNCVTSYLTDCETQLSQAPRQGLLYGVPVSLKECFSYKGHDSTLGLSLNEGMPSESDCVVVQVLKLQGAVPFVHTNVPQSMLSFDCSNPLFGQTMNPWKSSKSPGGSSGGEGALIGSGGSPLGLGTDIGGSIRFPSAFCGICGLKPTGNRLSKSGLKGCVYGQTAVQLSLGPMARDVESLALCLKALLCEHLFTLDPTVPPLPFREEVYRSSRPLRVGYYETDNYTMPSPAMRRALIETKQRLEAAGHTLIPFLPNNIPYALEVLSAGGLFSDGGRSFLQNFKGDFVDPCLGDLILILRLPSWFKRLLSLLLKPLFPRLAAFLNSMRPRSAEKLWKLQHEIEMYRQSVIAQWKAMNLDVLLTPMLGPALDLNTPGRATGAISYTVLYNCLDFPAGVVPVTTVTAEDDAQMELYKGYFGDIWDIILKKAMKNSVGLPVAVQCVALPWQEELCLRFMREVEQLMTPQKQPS
Reply with just the number (in nM).

input: What value of measured IC50 is listed for CN(CCCCCn1ccc2ccc(F)cc21)C(=O)Oc1ccccc1 ?
output: 1600

input: Endpoint output: IC50 of O=C(Oc1ccccc1)N1CCC(CCCCn2ccc3ccccc32)CC1 . Value?
output: 180

input: What value of IC50 has been recorded for this entry: O=C(Oc1ccccc1)N1CCN(CCn2ccc3cccnc32)CC1
output: 200

input: Could you tell me which IC50 is on file for O=C(Oc1ccccc1)N1CCN(CCn2ccc3ccncc32)CC1 ?
output: 310

input: Which measured IC50 value corresponds to N#Cc1ccc2c(ccn2CCC2CCN(C(=O)Oc3ccccc3)CC2)c1 ?
output: 970

input: Need IC50, item O=C(Oc1ccccc1)N1CCC(CCn2c3ccccc3c3ccccc32)CC1
output: 410

input: So what's the measured IC50 for this one? O=C(Oc1ccccc1)N1CCN(CCn2ccc3cnccc32)CC1
output: 790

input: Given the entry O=C(Oc1ccccc1)N1CCC(CCn2ccc3cccc(F)c32)CC1 , report its measured IC50.
output: 52

input: IC50 lookup needed for O=C(Oc1ccccc1)N1CCN(CCn2ccc3ccc(F)cc32)CC1 , thanks.
output: 180

input: I am curious: what IC50 value has been reported for O=C(Oc1ccccc1)N1CCC(CCn2ccc3ccccc32)CC1 ?
output: 110

input: # input compound: O=C(Oc1ccccc1)N1CCC(CCn2ccc3c(F)cccc32)CC1 ; wanted: its IC50
output: 110

input: What value of IC50 has been recorded for this entry: COc1ccc2c(ccn2CCC2CCN(C(=O)Oc3ccccc3)CC2)c1
output: 360

====

Test description: Metabolic stability in rat liver S9 fractions assessed as parent compound remaining in presence of NADPH incubated fro 30 mins by HPLC and MS-detection based method
Assay type: ADME, subcellular, S9 fraction
Measurement parameters: read-out: Stability
Quantity measured: remaining at 0.5 h (%)
Could you give me the number in %? Just the number is fine.

input: Request the reported remaining at 0.5 h associated with O=C(Oc1ccccc1)N1CCC(CCCCn2ccc3ccccc32)CC1
output: 78

input: Given the compound O=C(Oc1ccccc1)N1CCC(CCCn2ccc3ccccc32)CC1 , what is its reported remaining at 0.5 h?
output: 80

input: Please report the recorded remaining at 0.5 h for O=C(Oc1ccccc1)N1CCC(CCn2ccc3ccc(F)cc32)CC1 .
output: 82
